target-desc: human recombinant Cyp A (Homo sapiens)
Sequence (P62937 whole entry): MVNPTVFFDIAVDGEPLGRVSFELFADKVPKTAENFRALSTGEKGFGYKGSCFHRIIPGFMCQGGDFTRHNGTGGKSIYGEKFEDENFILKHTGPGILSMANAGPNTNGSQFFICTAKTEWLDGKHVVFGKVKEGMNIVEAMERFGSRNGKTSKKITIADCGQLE
protocol-notes: biochemical
Square brackets hold non-standard residues; d marks the D form. Peptide text beside a SMILES is read from it. * marks the point of attachment. NMe(2-epi-Bmt) = C/C=C/C[C@@H](C)[C@@H](O)[C@@H](NC)C(=O)O; NMeL = CN[C@@H](CC(C)C)C(=O)O; dNMeL = CN[C@H](CC(C)C)C(=O)O; dNMeV = CN[C@@H](C(=O)O)C(C)C; dNMeC = CN[C@H](CS)C(=O)O; dAbu = CC[C@@H](N)C(=O)O; Et2NCH2CH2 = CCN(CC)CC*; X3 = c1cc(CC*)ccn1; X1 = COC(=O)C*; X4 = CC(C)NCC*
Consider the following compounds and their measured Ki readings.
// return numeric value only (unit: nM, not printed)

Here's what some known entries look like.
compound: C/C=C/C[C@@H](C)[C@@H](O)[C@@H]1C(=O)N[C@H](CC)C(=O)N(C)[C@H](CSCCNC(C)C)C(=O)N(C)[C@@H](CC(C)C)C(=O)N[C@H](C(C)C)C(=O)N(C)[C@H](CC(C)C)C(=O)N[C@H](C)C(=O)N[C@@H](C)C(=O)N(C)[C@H](CC(C)C)C(=O)N(C)[C@H](CC(C)C)C(=O)N(C)[C@H](C(C)C)C(=O)N1C [Example 18] (cyclo(A[dNMeL][dNMeL][dNMeV][NMe(2-epi-Bmt)][dAbu][dNMeC](X4)[NMeL][dV][dNMeL][dA]))
units-of-measure: nM
Ki: 5.2
//
compound: C/C=C/C[C@@H](C)[C@@H](O)[C@@H]1C(=O)N[C@H](CC)C(=O)N(C)[C@H](CSC(C)(C)[C@@H](N)C(=O)O)C(=O)N(C)[C@@H](CC(C)C)C(=O)N[C@H](C(C)C)C(=O)N(C)[C@H](CC(C)C)C(=O)N[C@H](C)C(=O)N[C@@H](C)C(=O)N(C)[C@H](CC(C)C)C(=O)N(C)[C@H](CC(C)C)C(=O)N(C)[C@H](C(C)C)C(=O)N1C
units-of-measure: nM
Ki: 5.8
//
compound: C/C=C/C[C@@H](C)[C@@H](O)[C@@H]1C(=O)N[C@H](CC)C(=O)N(C)[C@H](CSCCN(CC)CC)C(=O)N(C)[C@@H](CC(C)C)C(=O)N[C@H](C(C)C)C(=O)N(C)[C@H](CC(C)C)C(=O)N[C@H](C)C(=O)N[C@@H](C)C(=O)N(C)[C@H](CC(C)C)C(=O)N(C)[C@H](CC(C)C)C(=O)N(C)[C@H](C(C)C)C(=O)N1C [Example 2] (cyclo(A[dNMeL][dNMeL][dNMeV][NMe(2-epi-Bmt)][dAbu][dNMeC](Et2NCH2CH2)[NMeL][dV][dNMeL][dA]))
units-of-measure: nM
Ki: 2.4
//
compound: C/C=C/C[C@@H](C)[C@@H](O)[C@@H]1C(=O)N[C@H](CC)C(=O)N(C)[C@H](CSCC(=O)OC)C(=O)N(C)[C@@H](CC(C)C)C(=O)N[C@H](C(C)C)C(=O)N(C)[C@H](CC(C)C)C(=O)N[C@H](C)C(=O)N[C@@H](C)C(=O)N(C)[C@H](CC(C)C)C(=O)N(C)[C@H](CC(C)C)C(=O)N(C)[C@H](C(C)C)C(=O)N1C [Example 11] (cyclo(A[dNMeL][dNMeL][dNMeV][NMe(2-epi-Bmt)][dAbu][dNMeC](X1)[NMeL][dV][dNMeL][dA]))
units-of-measure: nM
Ki: 2.1

Now consider a different compound.
Lookup: Item C/C=C/C[C@@H](C)[C@@H](O)[C@@H]1C(=O)N[C@H](CC)C(=O)N(C)[C@H](CSCCc2ccncc2)C(=O)N(C)[C@@H](CC(C)C)C(=O)N[C@H](C(C)C)C(=O)N(C)[C@H](CC(C)C)C(=O)N[C@H](C)C(=O)N[C@@H](C)C(=O)N(C)[C@H](CC(C)C)C(=O)N(C)[C@H](CC(C)C)C(=O)N(C)[C@H](C(C)C)C(=O)N1C [Example 3] (cyclo(A[dNMeL][dNMeL][dNMeV][NMe(2-epi-Bmt)][dAbu][dNMeC](X3)[NMeL][dV][dNMeL][dA])) : provide Ki
Found: 4.3

Every entry's value here was drawn from patent US9493511B2.
